Biological target: full-length beta-Catenin (Uniprot ID P35222) (Homo sapiens (Human)) (UniProt P35222)
Sequence (P35222 whole entry): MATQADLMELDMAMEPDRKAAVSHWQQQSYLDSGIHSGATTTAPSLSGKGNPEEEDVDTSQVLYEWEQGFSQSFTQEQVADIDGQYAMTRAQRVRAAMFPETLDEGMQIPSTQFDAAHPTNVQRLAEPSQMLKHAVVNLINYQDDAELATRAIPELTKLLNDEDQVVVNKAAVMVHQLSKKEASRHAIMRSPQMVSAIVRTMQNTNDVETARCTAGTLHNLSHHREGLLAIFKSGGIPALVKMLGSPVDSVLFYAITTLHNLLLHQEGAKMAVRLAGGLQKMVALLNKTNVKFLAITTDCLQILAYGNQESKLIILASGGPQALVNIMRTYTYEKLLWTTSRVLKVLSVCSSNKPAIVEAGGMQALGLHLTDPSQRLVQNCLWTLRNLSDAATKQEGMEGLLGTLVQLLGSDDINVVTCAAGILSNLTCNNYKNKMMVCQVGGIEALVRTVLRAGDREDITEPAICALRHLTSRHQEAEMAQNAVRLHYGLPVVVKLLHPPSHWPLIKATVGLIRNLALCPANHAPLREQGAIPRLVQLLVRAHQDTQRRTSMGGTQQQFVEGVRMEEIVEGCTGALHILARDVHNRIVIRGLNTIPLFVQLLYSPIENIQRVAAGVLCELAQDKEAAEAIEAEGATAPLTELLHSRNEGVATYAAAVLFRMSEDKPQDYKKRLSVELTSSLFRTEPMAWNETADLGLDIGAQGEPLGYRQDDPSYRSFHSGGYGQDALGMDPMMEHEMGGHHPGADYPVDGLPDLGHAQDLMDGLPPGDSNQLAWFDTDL
Experiment: fluorescence polarization competition, full-length beta-catenin, competitor 5FAM-TCF4 10-53
Starred links: 1 amine or outer side, 2 acyl side, 3 side chain; linkers in the order of their positions; H or OH if unused. Positions of bridges follow the written chain, without caps; N, C: chain ends. Non-standard residues stand in square brackets, D forms with d. Primed or numbered codes have the meaning given here. PyrS2″ = (S)-3-amino-1-((pent-4-en-1-yloxy)carbonyl)pyrrolidine-3-carboxylic acid (stapling residue), C=CCCCOC(=O)N1CC[C@@](N[*:1])(C(=O)[*:2])C1; B5(24) = 2-amino-2-(pent-4-en-1-yl)hept-6-enoic acid, 2,2-bis(4-pentenyl)glycine (stitching residue), C=CCCCC(CCCC=C)(N[*:1])C(=O)[*:2]; B5(4) = 2,2-bis(4-pentenyl)glycine = 2-amino-2-(pent-4-en-1-yl)hept-6-enoic acid (stitching residue), C=CCCCC(CCCC=C)(N[*:1])C(=O)[*:2]; B5(3) = 2,2-bis(4-pentenyl)glycine (stitching residue), C=CCCCC(CCCC=C)(N[*:1])C(=O)[*:2]; Phe(3-CF3) = N[C@@H](Cc1cccc(C(F)(F)F)c1)C(=O)O; Ala(morpholin-4-yl) = N[C@@H](CN1CCOCC1)C(=O)O; Phe(3-OMe) = COc1cccc(C[C@H](N)C(=O)O)c1; Phe(2-Cl) = N[C@@H](Cc1ccccc1Cl)C(=O)O; 1Nal = N[C@@H](Cc1cccc2ccccc12)C(=O)O; 2Nal = N[C@@H](Cc1ccc2ccccc2c1)C(=O)O; Bta = N[C@@H](Cc1csc2ccccc12)C(=O)O; Lys(iPr) = CC(C)NCCCC[C@H](N)C(=O)O; αAllylPro = C=CC[C@@]1(C(=O)O)CCCN1; tBuAla = CC(C)(C)C[C@H](N)C(=O)O; Cha = N[C@@H](CC1CCCCC1)C(=O)O
assay.metric: IC50 (nM)

binder	assay.metric	data.value
Ac-[αAllylPro]D[tBuAla][B5(4)]DDAAFN[PyrS2″][Phe(2-Cl)][Bta][Ala(morpholin-4-yl)]-NH2 (staple 1-4, 4-11; also: earlier eluting staple isomer) [I-1133]	IC50	5
Ac-[αAllylPro]D[Cha][B5(3)]DDAAFS[PyrS2″][Phe(2-Cl)][Bta]Q-NH2 (staple 1-4, 4-11 (inferred); not fully specified (residue 9); printed as Ac-PL3-Asp-Cha-B5-Asp-Asp-Ala-Ala-4F3MeF-Ser-PyrS2-2C1F-BztA-Gln-NH2) [I-1120]	IC50	85
Ac-[αAllylPro]D[2Nal][B5(4)]DDAAFL[PyrS2″][Phe(2-Cl)][Bta]S-NH2 (staple 1-4, 4-11) [I-1117]	IC50	55
Ac-[αAllylPro]D[tBuAla][B5(24)]DD[Lys(iPr)]AFN[PyrS2″][Phe(2-Cl)][Bta]Q-NH2 (staple 1-4, 4-11) [I-1131]	IC50	7
Ac-[αAllylPro]D[tBuAla][B5(24)]DDA[Lys(iPr)]FN[PyrS2″][Phe(2-Cl)][Bta]Q-NH2 (staple 1-4, 4-11) [I-1132]	IC50	21

I. Ac-[αAllylPro]D[Cha][B5(4)]DDAAFS[PyrS2″][Phe(2-Cl)][Bta]T-NH2 (staple 1-4, 4-11) [I-1135]
II. Ac-[αAllylPro]D[1Nal][B5(4)]DDAAFL[PyrS2″][Phe(2-Cl)][Bta]S-NH2 (staple 1-4, 4-11) [I-1116]
III. Ac-[αAllylPro]D[Cha][B5(3)]DDAA[Phe(3-OMe)]S[PyrS2″]F[Bta]Q-NH2 (staple 1-4, 4-11 (inferred)) [I-1124]
IV. Ac-[αAllylPro]D[tBuAla][B5(24)]DDAAFN[PyrS2″][Phe(2-Cl)][Bta][Lys(iPr)]-NH2 (staple 1-4, 4-11) [I-1130]
Ask | Place the items in sequence of falling IC50. Write the labels in rank order as requested.
Reply | II, I, III, IV
(II: 40 nM, I: 20 nM, III: 12 nM, IV: 6 nM)

P. Ac-[αAllylPro]D[Cha][B5(3)]DDAA[Phe(3-OMe)]S[PyrS2″][Phe(2-Cl)][Bta]Q-NH2 (staple 1-4, 4-11 (inferred)) [I-1118]
Q. Ac-[αAllylPro]D[Cha][B5(3)]DDAA[Phe(3-CF3)]S[PyrS2″]F[Bta]Q-NH2 (staple 1-4, 4-11 (inferred)) [I-1125]
R. Ac-[αAllylPro]D[tBuAla][B5(4)]DDAAFN[PyrS2″][Phe(2-Cl)][Bta][Ala(morpholin-4-yl)]-NH2 (staple 1-4, 4-11; also: later eluting staple isomer) [I-1134]
Ask | // sort entries: IC50, high to low Answer by naming the labels in the order asked.
Reply | P, Q, R
